Origin of values: patent US20240043386A1

TARGET_OR_SYSTEM: F508del/F508del CFTR (Homo sapiens, UniProt P13569, DEL508-508)
Construct: cells isolated from CF patients with the homozygous mutation; endogenous in cells
Sequence (P13569 with tags, fused parts or gaps DEL508-508): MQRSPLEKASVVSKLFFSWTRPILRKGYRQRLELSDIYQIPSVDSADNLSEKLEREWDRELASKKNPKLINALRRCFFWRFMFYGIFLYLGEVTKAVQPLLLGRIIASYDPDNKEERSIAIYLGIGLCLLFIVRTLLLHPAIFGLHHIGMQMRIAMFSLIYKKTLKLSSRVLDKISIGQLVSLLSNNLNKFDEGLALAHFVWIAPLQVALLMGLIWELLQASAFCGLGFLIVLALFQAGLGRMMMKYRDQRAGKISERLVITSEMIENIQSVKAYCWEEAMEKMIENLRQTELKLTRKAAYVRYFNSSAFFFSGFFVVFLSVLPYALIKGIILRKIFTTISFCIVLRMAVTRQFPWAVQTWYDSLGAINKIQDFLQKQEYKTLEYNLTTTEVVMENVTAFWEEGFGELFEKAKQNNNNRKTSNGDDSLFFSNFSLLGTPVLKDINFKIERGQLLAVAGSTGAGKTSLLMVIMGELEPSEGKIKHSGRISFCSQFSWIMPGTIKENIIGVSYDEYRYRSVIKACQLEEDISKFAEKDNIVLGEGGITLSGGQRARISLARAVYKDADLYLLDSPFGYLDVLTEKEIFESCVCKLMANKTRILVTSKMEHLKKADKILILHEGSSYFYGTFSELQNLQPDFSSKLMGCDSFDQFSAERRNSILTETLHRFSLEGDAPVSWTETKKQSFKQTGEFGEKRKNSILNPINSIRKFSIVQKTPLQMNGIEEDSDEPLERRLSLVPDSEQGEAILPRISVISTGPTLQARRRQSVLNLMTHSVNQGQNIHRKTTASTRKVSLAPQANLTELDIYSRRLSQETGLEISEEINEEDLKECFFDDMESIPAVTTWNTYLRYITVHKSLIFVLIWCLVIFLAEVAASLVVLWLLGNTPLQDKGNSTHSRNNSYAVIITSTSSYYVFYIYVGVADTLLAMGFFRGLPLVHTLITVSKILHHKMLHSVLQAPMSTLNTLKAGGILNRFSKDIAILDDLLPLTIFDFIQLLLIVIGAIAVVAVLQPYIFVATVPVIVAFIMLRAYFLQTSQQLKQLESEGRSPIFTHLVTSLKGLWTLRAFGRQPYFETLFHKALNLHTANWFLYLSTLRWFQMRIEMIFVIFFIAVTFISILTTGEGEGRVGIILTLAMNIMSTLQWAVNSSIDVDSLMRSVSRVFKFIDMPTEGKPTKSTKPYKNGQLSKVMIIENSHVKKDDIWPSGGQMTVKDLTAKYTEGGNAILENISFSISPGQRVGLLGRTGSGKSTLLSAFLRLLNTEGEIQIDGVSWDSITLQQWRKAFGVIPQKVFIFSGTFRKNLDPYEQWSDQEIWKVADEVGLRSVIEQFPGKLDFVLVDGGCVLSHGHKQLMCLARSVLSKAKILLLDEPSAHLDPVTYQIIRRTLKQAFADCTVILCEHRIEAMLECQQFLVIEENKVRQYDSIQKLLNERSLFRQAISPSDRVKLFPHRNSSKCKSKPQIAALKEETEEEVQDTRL
RUN_DESCRIPTION: Trans-Epithelial Current Clamp (TECC) assay using primary human bronchial epithelial cells
APPLIED_CONDITIONS: primary hBE cells homozygous F508del/F508del; test C2 corrector with co-corrector and potentiator, 18-24 hours at 37° C.; equivalent CFTR current (IEQ)/AUC
Field 'label' (enum: Met / Not met). Set to Met when EC50 is strictly under 1 nM; else Not met.

                                   compound  label_value
0  COc1ccc(C)cc1[C@]1(C(=O)NS(=O)(=O)c2cccc3nc(C)ccc23)C[C@@H]1c1ccc(C)cc1 (single isomer, unassigned) [Example 7]          Met
1  COc1ccc(C)cc1[C@@]1(C(=O)NS(=O)(=O)c2cccc3nc(C)ccc23)C[C@H]1c1ccccc1F (racemic) [Example 22]      Not met
2  COc1ccc(C)cc1[C@@]1(C(=O)NS(=O)(=O)c2cccc3nc(C)ccc23)C[C@H]1c1cccnc1OC (racemic) [Example 40]      Not met

Query: Bench note: check whether COc1ccc(C)cc1[C@]1(C(=O)NS(=O)(=O)c2cccc3nc(C)ccc23)C[C@@H]1c1cccc(C(C)C)n1 [Example 57] shows EC50 below 1 nM
Response: Not met

Query: In plain terms, does COc1ccc([C@@H]2C[C@]2(C(=O)NS(=O)(=O)c2cccc3nc(C)ccc23)c2cc(C)ccc2OC)c(OC)n1 (single isomer, unassigned) [Example 93] come in under 1 nM for EC50?
Response: Not met

Query: I'd appreciate it if you could check whether CCOc1ncccc1[C@@H]1C[C@]1(C(=O)NS(=O)(=O)c1cccc2nc(C)ccc12)c1cc(C)ccc1OC (single isomer, unassigned) [Example 73] has EC50 smaller than 1 nM.
Response: Not met

Query: Regarding COc1ncc([C@@H]2C[C@]2(C(=O)NS(=O)(=O)c2cccc3nc(C)ccc23)c2cc(C)ccc2OC)cn1 (racemic) [Example 36] , kindly confirm whether its EC50 is beneath 1 nM.
Response: Not met

Query: API: query returns whether the compound falls strictly under 1 nM in EC50. Query: COc1ccc(C)cc1[C@]1(C(=O)NS(=O)(=O)c2cccc3nc(C)ccc23)C[C@@H]1c1cccc(OC(C)C)n1 [Example 97]
Response: Met

Query: In the record for COc1ccc([C@H]2C[C@@]2(C(=O)NS(=O)(=O)c2cccc3nc(C)ccc23)c2cc(C)ccc2OC)c(OC)n1 (single isomer, unassigned) [Example 94] , is EC50 less than 1 nM?
Response: Not met

Query: Does the reported EC50 of the following compound sit strictly below 1 nM? COc1ccc([C@@H]2C[C@]2(C(=O)NS(=O)(=O)c2cccc3nc(C)ccc23)c2cc(C)ccc2OC)cc1 (racemic) [Example 9]
Response: Not met

Query: Threshold test, EC50 < 1 nM: COc1ccc(C)cc1[C@@]1(C(=O)NS(=O)(=O)c2cccc3nc(C)ccc23)C[C@H]1c1ccc(C)cc1 (racemic) [Example 4]
Response: Not met

---

TARGET_OR_SYSTEM: F508del/F508del CFTR (Homo sapiens, UniProt P13569, DEL508-508)
Construct: cells isolated from CF patients with the homozygous mutation; endogenous in cells
RUN_DESCRIPTION: Trans-Epithelial Current Clamp (TECC) assay using primary human bronchial epithelial cells
APPLIED_CONDITIONS: primary hBE cells homozygous F508del/F508del; test C2 corrector with co-corrector and potentiator, 18-24 hours at 37° C.; equivalent CFTR current (IEQ)/AUC
Text: A cell-based assay was developed using the primary human bronchial epithelial cells (hBE cells) with F508del/F508del CFTR and other mutations. Primary human bronchial epithelial (hBE) cells from CFTR patients with homozygous F508del/F508del mutation were expanded from 1×10^6 to 250×10^6 cells (Neuberger, T et al., 2011, Methods Mol Biol 741:39-54). […]
pEC50: −log10 of the molar value.
Lab note: compare pEC50 against 8. Equal or greater, write Criterion met. Smaller, write Criterion not met.

                                   compound        label_value
0  COc1ccc(C)cc1[C@]1(C(=O)NS(=O)(=O)c2cccc3nc(C)ccc23)C[C@@H]1c1ccc(C)nc1C  Criterion not met
1  COc1ccc(C)cc1[C@]1(C(=O)NS(=O)(=O)c2cccc3nc(C)ccc23)C[C@@H]1c1ccc(N(C)C)nc1  Criterion not met
2  COc1ccc(C)cc1[C@]1(C(=O)NS(=O)(=O)c2cccc3nc(C)ccc23)C[C@@H]1c1cnc(OC)c(OC)c1      Criterion met
3  COc1cncc([C@@H]2C[C@]2(C(=O)NS(=O)(=O)c2cccc3nc(C)ccc23)c2cc(C)ccc2OC)c1 (single isomer, unassigned) [Example 51]  Criterion not met
4  COc1ncc([C@H]2C[C@@]2(C(=O)NS(=O)(=O)c2cccc3nc(C)ccc23)c2cc(C)ccc2OC)cn1 (single isomer, unassigned)  Criterion not met
5  COc1ccc(C)cc1[C@@]1(C(=O)NS(=O)(=O)c2cccc3nc(C)ccc23)C[C@H]1c1ccccc1 (racemic) [Example 1]      Criterion met

Query: Threshold query (pEC50 >= 8) on COc1ccc(C)cc1[C@@]1(C(=O)NS(=O)(=O)c2cccc3nc(C)ccc23)C[C@H]1c1cccc(C(F)(F)F)c1 (single isomer, unassigned)
Response: Criterion met

Query: Would you say COc1ccc(C)cc1[C@]1(C(=O)NS(=O)(=O)c2cccc3nc(C)ccc23)C[C@@H]1c1ccc(C(C)C)nn1 shows pEC50 at minimum 8?
Response: Criterion not met

Query: # bool: pEC50 of COc1ccc(C)cc1[C@]1(C(=O)NS(=O)(=O)c2cccc3nc(C)ccc23)C[C@@H]1c1cc(F)cnc1OC >= 8
Response: Criterion not met

Query: Check this compound for pEC50 at or above 8: CCOc1cnc([C@@H]2C[C@]2(C(=O)NS(=O)(=O)c2cccc3nc(C)ccc23)c2cc(C)ccc2OC)cn1 (racemic) [Example 62]
Response: Criterion not met

Query: Confirm if pEC50 reported for the compound COc1ccc(C)cc1[C@@]1(C(=O)NS(=O)(=O)c2cccc3nc(C)ccc23)C[C@H]1c1ccccc1F (single isomer, unassigned) [Example 26] is 8 or above.
Response: Criterion met

Query: pEC50 >= 8 for COCc1cccc([C@H]2C[C@@]2(C(=O)NS(=O)(=O)c2cccc3nc(C)ccc23)c2cc(C)ccc2OC)n1 ?
Response: Criterion not met

Query: Tell me whether pEC50 is at least 8 here: COc1ccc(C)cc1[C@@]1(C(=O)NS(=O)(=O)c2cccc3nc(C)ccc23)C[C@H]1c1cnc(C)cn1 (single isomer, unassigned)
Response: Criterion not met

Query: API: above_or_equal(metric=pEC50, cutoff=8) for item COc1ccc(C)cc1[C@]1(C(=O)NS(=O)(=O)c2cccc3nc(C)ccc23)C[C@@H]1c1ccccn1
Response: Criterion not met

Query: Confirm if pEC50 reported for the compound COc1ccc(C)cc1[C@]1(C(=O)NS(=O)(=O)c2cccc3nc(C)ccc23)C[C@@H]1c1ccc(C)nc1OC (single isomer, unassigned) is 8 or above.
Response: Criterion not met

Query: Decide: pEC50 of COc1ccc(C)cc1[C@@]1(C(=O)NS(=O)(=O)c2cccc3nc(C)ccc23)C[C@H]1c1cncc(F)c1 (single isomer, unassigned) [Example 53] >= 8?
Response: Criterion not met

Query: Please tell me: is the compound COc1cnc([C@@H]2C[C@]2(C(=O)NS(=O)(=O)c2cccc3nc(C)ccc23)c2cc(C)ccc2OC)cn1 (single isomer, unassigned) [Example 47] at or over 8 in terms of pEC50?
Response: Criterion not met

Query: Check if pEC50 >= 8 (inclusive). Item: COc1cnc([C@@H]2C[C@]2(C(=O)NS(=O)(=O)c2cccc3nc(C)ccc23)c2cc(C)ccc2OC)cn1 (racemic) [Example 39]
Response: Criterion not met

Query: Is pEC50 for COc1ccc(C)cc1[C@@]1(C(=O)NS(=O)(=O)c2cccc3nc(C)ccc23)C[C@H]1c1cncc(C)n1 (single isomer, unassigned) [Example 45] at or above 8?
Response: Criterion not met

Query: Determine whether this compound has pEC50 no lower than 8: COc1ccc(C)cc1[C@@]1(C(=O)NS(=O)(=O)c2cccc3nc(C)ccc23)C[C@H]1c1cnc(C(C)C)cn1 (single isomer, unassigned) [Example 63]
Response: Criterion not met
